B1: TPR t1 (parent)
chain: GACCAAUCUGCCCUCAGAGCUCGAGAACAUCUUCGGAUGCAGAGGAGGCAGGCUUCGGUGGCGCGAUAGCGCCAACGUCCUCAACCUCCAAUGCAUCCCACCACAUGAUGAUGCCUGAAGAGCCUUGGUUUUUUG

Variants of: B1
Method Summary: polymerase ribozyme fitness, log enrichment relative to wild type (log ratio); higher = more active; in vitro selection for triplet polymerase activity
I would appreciate it if you labelled entries satisfied when polymerase ribozyme fitness (log ratio) is -2 or higher, otherwise not satisfied.

Would you please look over these solved cases?
Variant Label | Answer Label
C53A G69U A105U | satisfied
C12A G120U | satisfied
G71A A100U | satisfied
A26G C53G G77A | not satisfied
A6U C12U U81C | satisfied
U7G G10U C15A C56A G63C C64A C114A A121U C123G | not satisfied
C70A A83G C85A C88U | not satisfied
C40G U78C | satisfied
A5G C8U A95C | satisfied
U9G C12A U54A G93A | satisfied

Problem: Does polymerase ribozyme fitness (log ratio) meet or surpass -2 for A29G G45C U106A ?
Result: satisfied

Problem: Now this one: C62U U131G
Result: satisfied

Problem: Now this one: C12A G19U G42U C70A U92A U112C U129G
Result: not satisfied

Problem: Now this one: U9A C72G
Result: satisfied

Problem: Now this one: C15G C40U
Result: not satisfied

Problem: Now this one: G44A G60A A74U
Result: satisfied

Problem: Now this one: C86A C104A C124G G128U U133A
Result: satisfied

Problem: Now this one: C13A G71A A90G
Result: not satisfied

Problem: Now this one: U7G G39A G58A G69U C97U
Result: satisfied

Problem: Now this one: U7C G57U
Result: satisfied

Problem: Now this one: C11U C53A C97U
Result: satisfied

Problem: Now this one: A43C G48C
Result: not satisfied

Problem: Now this one: C13G A50U
Result: not satisfied

Problem: Now this one: G61C U116C
Result: not satisfied

Problem: Now this one: U9C U92G
Result: satisfied

Problem: Now this one: C20A A91G U109G
Result: not satisfied

Problem: Now this one: G47A U78G U81A C86U U133G
Result: satisfied
